PROCEDURE_TEXT: Human HepG2 cell viability assay in 384 well format
Assay type: toxicity, cell-based
Design: dose 125 nL, time 70.5 hour; concentration not given beside the values
RUN_PARAMETERS: HepG2 cells, read-out: Inhibition
Listed here: items and their measured cytotoxicity at 70.5 h.
Please give the number followed by its unit.

(Q) What cytotoxicity at 70.5 h value was documented for this compound, CC(C)c1cc(NC(=O)Cn2ccc(=O)c3ccccc32)[nH]n1 ?
(A) 5.53%

(Q) I am curious: what cytotoxicity at 70.5 h value has been reported for N#Cc1cccc(CN2CC[C@@H]3CN(c4ncccn4)CCO[C@@H]3C2)c1 ?
(A) 21.7%

(Q) Query (compound): Cn1ncc2c(N[C@@H]3CS(=O)(=O)C[C@H]3O)nc(C(C)(C)C)nc21 ; field requested: cytotoxicity at 70.5 h
(A) -9.52%

(Q) Value lookup for cytotoxicity at 70.5 h; key = COc1cc(OC)cc(-c2cc(CN)nc3ccnn23)c1
(A) -4.26%

(Q) Dear colleague, I am looking for the recorded cytotoxicity at 70.5 h of the following compound: Cc1nnc2n1CCN(C(=O)C1CCC(n3cccc3)CC1)C2 (configuration not stated)
(A) -8.85%

(Q) If you can, please state the reported cytotoxicity at 70.5 h value of COc1cccc(-c2nc(CNCc3cccnc3)cs2)c1 .
(A) -17.2%

(Q) Returns the measured cytotoxicity at 70.5 h for the input compound. Input: O=C(COC1CCCC1)Nc1ncn(CC(=O)N2CCCCCC2)n1
(A) -8.06%

(Q) Consider the compound CN1CC(C(=O)NCc2cccnc2OCC(F)(F)F)CC1=O (configuration not stated) and give its measured cytotoxicity at 70.5 h.
(A) -2.61%

(Q) I would be grateful if you could share the reported cytotoxicity at 70.5 h for Cc1cnccc1CN(C)C(=O)c1ccc(Cn2cnnn2)cc1 .
(A) 37.3%

(Q) Given CC1CN(CC(=O)Nc2nncs2)CCN1c1nccs1 (configuration not stated) , state its recorded cytotoxicity at 70.5 h.
(A) -9.27%

(Q) Query: cytotoxicity at 70.5 h; subject: COCC1CN(Cc2ccc(C)o2)Cc2ncn(CC3CC3)c21 (configuration not stated)
(A) -8.02%

(Q) So what does the record say about cytotoxicity at 70.5 h for Cc1cc(C)n(-c2ccc(CNCc3cccc(C#N)c3)cn2)n1 ?
(A) -12.6%

(Q) # query: cytotoxicity at 70.5 h of entry NC(=O)c1cn[nH]c1C1CCCN1C(=O)COc1ccccc1 (configuration not stated)
(A) -3.18%

(Q) Item under review: O=C(c1ccc(F)cc1)N1CCN2C[C@H](OCc3cccnc3)C[C@H]2C1 . Reported cytotoxicity at 70.5 h?
(A) -11%

(Q) # query: cytotoxicity at 70.5 h of entry CCN(Cc1ccc2c(c1)OCO2)C(=O)NCc1nc(C)cs1
(A) -9.62%

(Q) Recorded cytotoxicity at 70.5 h of CS(=O)(=O)NC1CC2(CCN(CC3CC3)CC2)Oc2ccccc21 (configuration not stated) , please.
(A) 1.75%

(Q) Entry Cc1cccc(N2CCCC3(C2)CN(S(C)(=O)=O)CCO3)c1 (configuration not stated) has what cytotoxicity at 70.5 h?
(A) -4.48%

(Q) State the recorded cytotoxicity at 70.5 h for this entry: CCOC[C@@]12CCC[C@@H]1CN(C(=O)c1ccc(OC)cc1)C2
(A) 4.26%

(Q) What value of cytotoxicity at 70.5 h has been reported for the following compound? COc1ccccc1C(=O)NCC(c1cccn1C)N1CCOCC1 (configuration not stated)
(A) -6.22%

(Q) cytotoxicity at 70.5 h for CC(C)c1ccccc1NC(=O)N1C[C@@H]2CC[C@H](C1)N(C)C2=O ?
(A) 27.2%

(Q) Suppose we examine the compound O=S1(=O)C[C@@H]2[C@H](C1)N(Cc1cc(F)cc(F)c1)CCN2CCO ; what cytotoxicity at 70.5 h value has been reported?
(A) -1.64%

(Q) # lookup: cytotoxicity at 70.5 h of CN1CCN(CCO)C(=O)C12CCN(c1nccs1)CC2
(A) -2.35%

(Q) So what does the record say about cytotoxicity at 70.5 h for Cc1oncc1C(=O)N1C[C@H]2CCCC(N(C)Cc3cccs3)[C@H]2C1 (some centres not stated) ?
(A) -8.63%

(Q) What value of measured cytotoxicity at 70.5 h is listed for CN(C)C1CC2(CCN(C(=O)c3csnn3)CC2)c2ccccc21 (configuration not stated) ?
(A) -0.291%

(Q) Tell me the measured cytotoxicity at 70.5 h of O=S(=O)(NCCC(O)c1cccs1)c1ccccc1 (configuration not stated) , please.
(A) -5.21%

(Q) # input compound: CSCC(=O)N[C@H]1CC[C@H](Nc2nccc(-c3ccncc3)n2)C1 ; wanted: its cytotoxicity at 70.5 h
(A) -0.057%

(Q) Find the recorded cytotoxicity at 70.5 h belonging to CC(C)(C)CN1CC[C@H](c2nnc(Cc3c[nH]c4ccccc34)o2)C1 and report it.
(A) 15.2%
